Listed next: entries and their corresponding IC50.
- target_desc: EGFR L858R/T790M/C797S kinase (EGFR^LTC) (Homo sapiens, UniProt P00533, C797S/L858R/T790M)
- Sequence (P00533 669-1210 T790M/C797S/L858R limits assumed): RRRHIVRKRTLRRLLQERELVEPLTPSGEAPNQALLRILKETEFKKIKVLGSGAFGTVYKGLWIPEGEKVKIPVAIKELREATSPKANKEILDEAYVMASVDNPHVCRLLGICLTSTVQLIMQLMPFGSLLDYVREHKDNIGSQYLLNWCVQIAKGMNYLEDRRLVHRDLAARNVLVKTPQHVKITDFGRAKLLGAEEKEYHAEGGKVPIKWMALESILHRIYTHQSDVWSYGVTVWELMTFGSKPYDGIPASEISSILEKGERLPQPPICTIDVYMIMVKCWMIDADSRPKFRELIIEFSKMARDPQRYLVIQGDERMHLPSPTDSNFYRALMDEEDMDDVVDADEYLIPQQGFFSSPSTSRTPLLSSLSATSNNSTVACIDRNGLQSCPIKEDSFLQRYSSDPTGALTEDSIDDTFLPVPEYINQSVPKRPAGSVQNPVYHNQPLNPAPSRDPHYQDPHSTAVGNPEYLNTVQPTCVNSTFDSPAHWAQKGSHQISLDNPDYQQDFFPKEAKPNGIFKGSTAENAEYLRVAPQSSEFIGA
- assay_name: HTRF KINASE-TK in vitro kinase inhibition assay, dose response
- Format: biochemical
property: IC50 (nM)

INSERT INTO results (input_smiles, inequality_symbol, result) VALUES
  ('CC(=O)c1cnc2ccc(-c3cc(Cl)c(O)c(Cl)c3)nc2c1N[C@H]1CC[C@H](CN(C)C)CC1', '=', 5.5),
  ('COc1cc2nccc(Oc3ccc(NC(=O)c4cn(C(C)C)c(=O)n(-c5ccc(F)cc5)c4=O)cc3F)c2cc1OC', '<', 10000),
  ('N#Cc1ccnc(Nc2cc(C3CCN(C4COC4)CC3)cc(N3CCC(F)(F)C3)n2)c1', '<', 10000),
  ('CCc1cc(Nc2nccc(-c3c(-c4ccc(OC)c(C(=O)Nc5c(F)cccc5F)c4)nc4ccccn34)n2)c(OC)cc1N1CCC(N2CCN(S(C)(=O)=O)CC2)CC1', '<', 10000),
  ('COc1cc(N2CCC(N(C)C)CC2)ccc1Nc1ncc(Cl)c(Nc2ccccc2P(C)(C)=O)n1', '=', 1.2);
